- target-or-test-system: T1, human MSLN-FL-his protein (human, UniProt Q13421 296-580)
- T1 construct: made in HEK293E cells, purified on nickel column; also called hMSLN-FL-his; human MSLN full-length protein; not shown: His tag
- T1 sequence (Q13421 other isoform, or with tags, fused parts or gaps): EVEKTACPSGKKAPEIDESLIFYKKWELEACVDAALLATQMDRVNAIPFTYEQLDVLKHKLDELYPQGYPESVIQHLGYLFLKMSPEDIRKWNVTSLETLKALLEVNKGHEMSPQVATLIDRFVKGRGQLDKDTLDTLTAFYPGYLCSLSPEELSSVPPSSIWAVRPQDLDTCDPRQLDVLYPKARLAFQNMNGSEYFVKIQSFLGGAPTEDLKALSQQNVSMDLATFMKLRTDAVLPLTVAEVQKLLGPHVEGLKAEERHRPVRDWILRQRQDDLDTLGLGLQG
- test-name: competitive ELISA; row Tab142 (R1); further: test concentration or dose not given here
readout-name: competition rate (%)
State the answer as a number, implicitly in %.

- binder: "S009-F2.16.10 (antibody, human IgG1, kappa, V domains shown, human-murine chimeric antibody, human IgG1/kappa constant regions) VH: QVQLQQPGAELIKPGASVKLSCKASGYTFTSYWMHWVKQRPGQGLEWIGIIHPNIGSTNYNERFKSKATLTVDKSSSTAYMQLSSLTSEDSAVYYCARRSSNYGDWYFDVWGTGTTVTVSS VL: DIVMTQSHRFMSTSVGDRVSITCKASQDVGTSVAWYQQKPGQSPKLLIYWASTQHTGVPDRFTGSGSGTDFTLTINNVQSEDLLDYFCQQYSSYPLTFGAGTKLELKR"
  reading: 98
- binder: "S009-F1.35.24 (antibody, human IgG1, kappa, V domains shown, human-murine chimeric antibody, human IgG1/kappa constant regions) VH: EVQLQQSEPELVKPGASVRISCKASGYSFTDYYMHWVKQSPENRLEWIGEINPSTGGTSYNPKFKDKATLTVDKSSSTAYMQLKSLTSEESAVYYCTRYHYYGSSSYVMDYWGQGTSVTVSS VL: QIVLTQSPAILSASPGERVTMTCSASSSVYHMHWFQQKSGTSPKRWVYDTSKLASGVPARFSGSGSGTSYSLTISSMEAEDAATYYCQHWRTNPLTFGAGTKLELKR"
  reading: 49
- binder: "S009-F2.39.3 (antibody, human IgG1, kappa, V domains shown, human-murine chimeric antibody, human IgG1/kappa constant regions) VH: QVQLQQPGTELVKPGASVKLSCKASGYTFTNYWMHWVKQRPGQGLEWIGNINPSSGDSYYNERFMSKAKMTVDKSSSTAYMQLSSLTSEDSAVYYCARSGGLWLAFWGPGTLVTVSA VL: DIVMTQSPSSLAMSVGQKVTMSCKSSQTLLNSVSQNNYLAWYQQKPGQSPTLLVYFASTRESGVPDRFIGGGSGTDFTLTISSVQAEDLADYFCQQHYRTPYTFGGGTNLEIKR"
  reading: 19
- binder: "Tab107 (YP3, hIgG1) (antibody, V domains shown, Control antibody; VH and VL recombined into human IgG1 CH and CL expression vectors; also called YP3 human IgG1 antibody) VH: QEQLVESGGGLVQPGASLTLTCTASGIDFSRYYMCWVRQAPGKGLEGIACIYIGGSGSTYYASWAKGRFTISKASSTTVTLQMTSLTAADTATYFCARGTNLNYIFRLWGPGTLVTVSS VL: DVVMTQTPSPVSAAVGGTVTIKCQASQSINNGLAWYQQKPGQPPRLLIYSASNLESGVPSRFKGSGSGTEFTLTISDLECDDAATYYCQCIWDGNSYVNAFGGGTEVVVRT"
  reading: -6

Turning now to a further record.
Query S009-F1.56.1 (antibody, human IgG1, kappa, V domains shown, human-murine chimeric antibody, human IgG1/kappa constant regions) VH: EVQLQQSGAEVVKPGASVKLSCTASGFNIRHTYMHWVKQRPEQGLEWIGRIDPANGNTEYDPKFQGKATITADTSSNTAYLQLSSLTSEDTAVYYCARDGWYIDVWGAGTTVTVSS VL: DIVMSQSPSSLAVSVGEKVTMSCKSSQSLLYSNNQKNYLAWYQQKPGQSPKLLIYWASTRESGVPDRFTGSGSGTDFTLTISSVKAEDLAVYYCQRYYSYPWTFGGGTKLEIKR yields competition rate of 9
